// IC50 lookup, one value per entry
- Tested on: human gastric adenocarcinoma cells AGS
- assay.protocol: MTT in vitro cell proliferation inhibition experiment, AGS
- Assay type: cell-based
- conditions: MTT method, 48 h contact between compound and cell, read-out: Antiproliferative activity (IC50, μM) AGS
endpoint: IC50

[[record]]
compound = "COc1ccc(C2=N[C@@H](c3ccc(Cl)cc3)[C@@H](c3ccc(Cl)cc3)N2C(=O)N2CCNC(=O)C2)c(OC(C)C)c1 [Nutlin-3a, reference compound]"
endpoint = "IC50"
value_reported = "21.4 µM"

[[record]]
compound = "N.N.[Cl][Pt][Cl] [Cisplatin, reference compound]"
endpoint = "IC50"
value_reported = "46 µM"


====

- System: human gastric adenocarcinoma cells AGS
- assay.protocol: MTT in vitro cell proliferation inhibition experiment, AGS
- Assay type: cell-based
- conditions: Homo sapiens, MTT method, 48 h contact between compound and cell, read-out: Antiproliferative activity (IC50, μM) AGS
Listed next: entries and their corresponding IC50.
endpoint: IC50 (µM)

[[record]]
molecule = "CSCCC1NC2(C(=O)c3ccccc3C2=O)C(C(=O)c2nc3ccccc3[nH]2)C1c1ccc(C)cc1 (centres unmarked)"
prefix_operator = "="
value_reported = 9.78

[[record]]
molecule = "CC(C)CC1NC2(C(=O)c3ccccc3C2=O)C(C(=O)c2nc3ccccc3[nH]2)C1c1cccc(Br)c1 (centres unmarked)"
prefix_operator = "="
value_reported = 7.92

[[record]]
molecule = "Cc1ccc(C2C(C(C)C)NC3(C(=O)c4ccccc4C3=O)C2C(=O)c2nc3ccccc3[nH]2)cc1 (centres unmarked)"
prefix_operator = "="
value_reported = 2.98

[[record]]
molecule = "O=C(c1nc2ccccc2[nH]1)C1C(c2cccc(Br)c2)C2CCCN2C12C(=O)c1ccccc1C2=O (centres unmarked)"
prefix_operator = "="
value_reported = 4

[[record]]
molecule = "CCOc1ccc(C2C(CCSC)NC3(C(=O)c4ccccc4C3=O)C2C(=O)c2nc3ccccc3[nH]2)cc1OCC (centres unmarked)"
prefix_operator = "="
value_reported = 78.6

[[record]]
molecule = "CC(C)C1NC2(C(=O)c3ccccc3C2=O)C(C(=O)c2nc3ccccc3[nH]2)C1c1cccc(Br)c1 (centres unmarked)"
prefix_operator = "="
value_reported = 2.98

[[record]]
molecule = "CCOc1ccc(C2C(C(C)C)NC3(C(=O)c4ccccc4C3=O)C2C(=O)c2nc3ccccc3[nH]2)cc1OCC (centres unmarked)"
prefix_operator = "="
value_reported = 67.1

[[record]]
molecule = "CCOc1ccc(C2C(c3c[nH]c4ccccc34)NC3(C(=O)c4ccccc4C3=O)C2C(=O)c2nc3ccccc3[nH]2)cc1 (centres unmarked)"
prefix_operator = "="
value_reported = 38

[[record]]
molecule = "Cc1ccc(C2C(c3c[nH]c4ccccc34)NC3(C(=O)c4ccccc4C3=O)C2C(=O)c2nc3ccccc3[nH]2)cc1 (centres unmarked)"
prefix_operator = "="
value_reported = 6.02

[[record]]
molecule = "CCC(C)C1NC2(C(=O)c3ccccc3C2=O)C(C(=O)c2nc3ccccc3[nH]2)C1c1ccc(Cl)c(F)c1 (centres unmarked)"
prefix_operator = ">"
value_reported = 100

[[record]]
molecule = "CCOc1ccc(C2C(CC(C)C)NC3(C(=O)c4ccccc4C3=O)C2C(=O)c2nc3ccccc3[nH]2)cc1 (centres unmarked)"
prefix_operator = "="
value_reported = 85.7

[[record]]
molecule = "CC(C)C1NC2(C(=O)c3ccccc3C2=O)C(C(=O)c2nc3ccccc3[nH]2)C1c1ccc(Cl)cc1 (centres unmarked)"
prefix_operator = "="
value_reported = 90.1

[[record]]
molecule = "CCC(C)C1NC2(C(=O)c3ccccc3C2=O)C(C(=O)c2nc3ccccc3[nH]2)C1c1cccc(Br)c1 (centres unmarked)"
prefix_operator = "="
value_reported = 4.78

[[record]]
molecule = "CCC(C)C1NC2(C(=O)c3ccccc3C2=O)C(C(=O)c2nc3ccccc3[nH]2)C1c1ccc(Br)cc1 (centres unmarked)"
prefix_operator = "="
value_reported = 3.67


====

- System: human gastric adenocarcinoma cells AGS
- assay.protocol: MTT in vitro cell proliferation inhibition experiment, AGS
- Assay type: cell-based
- conditions: Homo sapiens, MTT method, 48 h contact between compound and cell, read-out: Antiproliferative activity (IC50, μM) AGS
- Source text: Human liver tumor cells HepG2, human colon cancer cells HCT116, and human gastric adenocarcinoma cells AGS were purchased from the Institute of Basic Medical Sciences, Chinese Academy of Medical Sciences. The cells each were preserved and passaged in the laboratory of the present disclosure according to respective cultivation data. […]
// assign met if IC50 falls strictly below 40 µM, else not met (ties count as not met)

[[record]]
compound = "Cc1ccc(C2C3CCCN3C3(C(=O)c4ccccc4C3=O)C2C(=O)c2nc3ccccc3[nH]2)cc1 (stereo not shown)"
assigned_class = "met"

[[record]]
compound = "O=C(c1nc2ccccc2[nH]1)C1C(c2cccc(Br)c2)C(c2c[nH]c3ccccc23)NC12C(=O)c1ccccc1C2=O (stereo not shown)"
assigned_class = "met"

[[record]]
compound = "CCOc1ccc(C2C(C(C)C)NC3(C(=O)c4ccccc4C3=O)C2C(=O)c2nc3ccccc3[nH]2)cc1 (stereo not shown)"
assigned_class = "not met"

[[record]]
compound = "CC(C)CC1NC2(C(=O)c3ccccc3C2=O)C(C(=O)c2nc3ccccc3[nH]2)C1c1ccc(Cl)c(F)c1 (stereo not shown)"
assigned_class = "not met"

[[record]]
compound = "CCOc1ccc(C2C3CCCN3C3(C(=O)c4ccccc4C3=O)C2C(=O)c2nc3ccccc3[nH]2)cc1OCC (stereo not shown)"
assigned_class = "met"


====

Each entry below carries its recorded IC50.
- Tested on: human gastric adenocarcinoma cells AGS
- assay.protocol: MTT in vitro cell proliferation inhibition experiment, AGS
- Assay type: cell-based
- conditions: Homo sapiens, MTT method, 48 h contact between compound and cell, read-out: Antiproliferative activity (IC50, μM) AGS
endpoint: IC50

[[record]]
compound = "CCOc1ccc(C2C(CC(C)C)NC3(C(=O)c4ccccc4C3=O)C2C(=O)c2nc3ccccc3[nH]2)cc1OCC (stereo not drawn)"
value_reported = "> 100 µM"

[[record]]
compound = "CCOc1ccc(C2C(CCSC)NC3(C(=O)c4ccccc4C3=O)C2C(=O)c2nc3ccccc3[nH]2)cc1 (stereo not drawn)"
value_reported = "> 100 µM"

[[record]]
compound = "CCOc1ccc(C2C(C(C)CC)NC3(C(=O)c4ccccc4C3=O)C2C(=O)c2nc3ccccc3[nH]2)cc1OCC (stereo not drawn)"
value_reported = "33.8 µM"


The reported measurements were obtained from patent US12637472B2.
